Give measured Minimum Inhibitory Concentration for each item. Keep answers brief.
Tested on: Pseudomonas aeruginosa
Experiment: Plate dilution antimicrobial susceptibility, Pseudomonas aeruginosa
Details: presence of 10 percent horse serum
Unit mg/L implied. Number only.

Ask: Return the recorded Minimum Inhibitory Concentration value; entry: CC1CCc2c(Br)c(F)cc3c(=O)c(C(=O)O)cn1c23 (stereo not drawn) [8-Br, 9-F]
Reply: 10

Ask: Return the recorded Minimum Inhibitory Concentration value; entry: CC1CCc2c(Cl)c(F)cc3c(=O)c(C(=O)O)cn1c23 (stereo not drawn) [8-Cl, 9-F]
Reply: 10

Ask: Return the recorded Minimum Inhibitory Concentration value; entry: CC1CCc2c(Br)c(F)cc3c(=O)c(C(=O)[O-])cn1c23.[Na+] (stereo not drawn) [8-Br, 9-F sodium salt]
Reply: 10

Ask: Return the recorded Minimum Inhibitory Concentration value; entry: CC1CCc2cc(F)cc3c(=O)c(C(=O)O)cn1c23 (stereo not drawn) [Example 9-F]
Reply: 100

Ask: Return the recorded Minimum Inhibitory Concentration value; entry: CC1CCc2c(Cl)c(F)cc3c(=O)c(C(=O)[O-])cn1c23.[Na+] (stereo not drawn) [8-Cl, 9-F sodium salt]
Reply: 10

Ask: Return the recorded Minimum Inhibitory Concentration value; entry: CC1CCc2c(Cl)ccc3c(=O)c(C(=O)O)cn1c23 (stereo not drawn) [Example 8-Cl]
Reply: 100
